Hello, the source for this data is patent US7101878B1, in case you need it.

Target: human GnRH receptor (Homo sapiens, UniProt P30968)
Construct: expressed in transfected cells; host or cells: HEK 293 (hGnRH-R/293, from Dr. Stuart Sealfon)
Sequence (P30968 1-328): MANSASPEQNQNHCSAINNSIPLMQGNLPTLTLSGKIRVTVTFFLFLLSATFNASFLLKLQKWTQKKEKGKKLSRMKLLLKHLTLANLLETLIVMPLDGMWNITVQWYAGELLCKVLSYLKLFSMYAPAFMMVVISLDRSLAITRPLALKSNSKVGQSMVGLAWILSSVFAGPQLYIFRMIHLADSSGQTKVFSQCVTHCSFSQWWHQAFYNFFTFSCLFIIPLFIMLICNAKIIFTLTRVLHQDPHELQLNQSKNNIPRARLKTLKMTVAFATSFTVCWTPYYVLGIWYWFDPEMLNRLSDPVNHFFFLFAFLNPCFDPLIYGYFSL
Assay: Radioligand binding, 125I-GnRH-A displacement, membranes of HEK 293 cells with human GnRH receptor
Conditions: 1 uM; read-out: % Inhib. @ 1 uM hGnRH
Readings of inhibition at 1 µM for the listed compounds
Write the value in % as a bare number.

compound=Cc1cc2c(cc1Cc1ccc(C(=O)NCc3c(Cl)cccc3Oc3ccccc3)o1)C(C)(C)CCC2(C)C target_or_test_system="human GnRH receptor (Homo sapiens, UniProt P30968)" readout_number=-10
compound="Cc1cc2c(cc1Cc1ccc(C(=O)NCc3ccccc3Cl)o1)C(C)(C)CCC2(C)C [drawing 1103]" target_or_test_system="human GnRH receptor (Homo sapiens, UniProt P30968)" readout_number=77
compound=Cc1cc2c(cc1Cc1ccc(C(=O)N(C)Cc3ccccc3)o1)C(C)(C)CCC2(C)C target_or_test_system="human GnRH receptor (Homo sapiens, UniProt P30968)" readout_number=-7

Now turn to the next compound.
For the compound "Cc1cc2c(cc1Cc1ccc(C(=O)N[C@H](C)[C@H](O)c3ccc(O)cc3)o1)C(C)(C)CCC2(C)C" , give its measured inhibition at 1 µM value.
-2

###

Molecular target: human GnRH receptor (Homo sapiens, UniProt P30968)
Construct: expressed in transfected cells; host or cells: HEK 293 (hGnRH-R/293, from Dr. Stuart Sealfon)
Sequence (P30968 1-328): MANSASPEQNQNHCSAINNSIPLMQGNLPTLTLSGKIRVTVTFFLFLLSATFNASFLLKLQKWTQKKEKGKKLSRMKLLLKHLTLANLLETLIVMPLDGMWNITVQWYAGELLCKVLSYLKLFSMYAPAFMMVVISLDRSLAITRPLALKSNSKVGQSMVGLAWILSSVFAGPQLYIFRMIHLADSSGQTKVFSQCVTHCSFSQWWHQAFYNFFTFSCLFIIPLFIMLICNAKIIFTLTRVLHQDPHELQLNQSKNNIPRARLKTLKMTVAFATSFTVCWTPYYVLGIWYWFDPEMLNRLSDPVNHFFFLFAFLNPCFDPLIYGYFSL
Experiment: Radioligand binding, 125I-GnRH-A displacement, membranes of HEK 293 cells with human GnRH receptor
Conditions: read-out: hGnRH IC50
pIC50 reference
Scale for pIC50: -log10 of concentration given in mol/L; no unit attached.

Worked set:
molecule=Cc1cc2c(cc1Cc1ccc(C(=O)NCc3cccc(CNc4ncnc5c(C)csc45)c3)o1)C(C)(C)CCC2(C)C parameter=pIC50 readout_number=6.44
molecule="Cc1cc2c(cc1Cc1ccc(C(=O)NCC3CCC(CNC(=O)C(F)(F)F)CC3)o1)C(C)(C)CCC2(C)C (centres unmarked)" parameter=pIC50 readout_number=6.60
molecule=Cc1cc2c(cc1Cc1ccc(C(=O)NCc3cccc(C)c3C)o1)C(C)(C)CCC2(C)C parameter=pIC50 readout_number=7.10
molecule=COc1cc(OC)c(NC(=O)c2ccc(Cc3cc(C(C)(C)C)ccc3OC)o2)c(OC)c1 parameter=pIC50 readout_number=6.89
molecule=COc1cc(OC)c([N+](=O)[O-])c(NC(=O)c2ccc(Cc3cc4c(cc3C)C(C)(C)CCC4(C)C)o2)c1[N+](=O)[O-] parameter=pIC50 readout_number=5.55
molecule=Cc1cc(C)cc(NC(=O)c2ccc(Cc3cc4c(cc3C)C(C)(C)CCC4(C)C)o2)c1 parameter=pIC50 readout_number=6.04
molecule=COC(=O)[C@H]1CC[C@H](CNC(=O)c2ccc(Cc3cc4c(cc3C)C(C)(C)CCC4(C)C)o2)CC1 parameter=pIC50 readout_number=7.05
molecule=COc1ccc(CNC(=O)c2ccc(Cc3cc4c(cc3C)C(C)(C)CCC4(C)C)o2)c(OC)c1 parameter=pIC50 readout_number=7.00
molecule=CCOC(=O)N1CCC(C)(C)c2c(Cc3ccc(C(=O)Nc4c(OC)cc(OC)cc4OC)o3)c(OC)cc(OC)c21 parameter=pIC50 readout_number=5.91
molecule=Cc1cc2c(cc1Cc1ccc(C(=O)NCc3cccc(CNC(=O)C(F)(F)F)c3)o1)C(C)(C)CCC2(C)C parameter=pIC50 readout_number=5.93

Read the entry "Cc1cc2c(cc1Cc1ccc(C(=O)NCc3cccc(-c4ccccc4)c3)o1)C(C)(C)CCC2(C)C" and write its reported pIC50.
5.46

Give the reported pIC50 for this molecule. "CNc1ccccc1NC(=O)c1ccc(Cc2cc3c(cc2C)C(C)(C)CCC3(C)C)o1"
5.12

Report pIC50, nothing else, for this molecule: "COc1ccc(CNC(=O)c2ccc(Cc3cc4c(cc3C)C(C)(C)CCC4(C)C)o2)cc1"
7.12

Check the records and state pIC50 for "Cc1cnc(CNC(=O)c2cccc(Cc3cc4c(cc3C)C(C)(C)CCC4(C)C)c2)cn1"
5.11
